Catalogue of Papp at 4 h values
Assay: in vitro
Conditions: PAMPA, pH 7.4
Description: Permeability of the compound at pH 7.4 after 4 hrs by PAMPA
observation-type: Papp at 4 h (×10⁻⁶ cm/s)

[
  {
    "molecule-smiles": "NC(=O)N1CCN(CCCN(C[C@H]2Cc3ccccc3CN2)[C@H]2CCCc3cccnc32)CC1",
    "observation-type": "Papp at 4 h",
    "assay-result": 6.7
  },
  {
    "molecule-smiles": "c1ccc2c(c1)CN[C@@H](CN(CCC1CCNCC1)[C@H]1CCCc3cccnc31)C2",
    "observation-type": "Papp at 4 h",
    "assay-result": 1.9
  },
  {
    "molecule-smiles": "c1cnc2c(c1)CN[C@@H](CN(CCCN1CCNCC1)[C@H]1CCCc3cccnc31)C2",
    "observation-type": "Papp at 4 h",
    "assay-result": 0.9
  },
  {
    "molecule-smiles": "c1cnc(CN(CCCN2CCNCC2)[C@H]2CCCc3cccnc32)nc1",
    "observation-type": "Papp at 4 h",
    "assay-result": 3.1
  },
  {
    "molecule-smiles": "c1ccc2c(c1)CN[C@H](CN(CCCN1CCNCC1)[C@H]1CCCc3cccnc31)C2",
    "observation-type": "Papp at 4 h",
    "assay-result": 1.6
  },
  {
    "molecule-smiles": "CCN1CCN(CCCN(C[C@H]2Cc3ccccc3CN2)[C@H]2CCCc3cccnc32)CC1",
    "observation-type": "Papp at 4 h",
    "assay-result": 31.7
  }
]

====

Biological target: Muscarinic acetylcholine receptor
Experiment: Antagonist activity at mAChR in human CCRF-CEM cells assessed as inhibition of acetylcholine-induced calcium flux pretreated for 25 mins followed by acetylcholine addition measured for 90 secs by calcium-dye based assay
Format: functional, cell-based
Here, each record is paired with measured IC50 data.

[
  {
    "molecule-smiles": "c1ccc2c(c1)CN[C@@H](CN(CCCCN1CCNCC1)[C@H]1CCCc3cccnc31)C2",
    "IC50": "> 14 µM"
  },
  {
    "molecule-smiles": "c1ccc2c(c1)CN[C@@H](CN(CC1CCNCC1)[C@H]1CCCc3cccnc31)C2",
    "IC50": "> 14 µM"
  },
  {
    "molecule-smiles": "CCN1CCN(CCCN(C[C@H]2Cc3ccccc3CN2)[C@H]2CCCc3cccnc32)CC1",
    "IC50": "> 17 µM"
  },
  {
    "molecule-smiles": "c1cnc2c(c1)CCC[C@@H]2N(CCCN1CCNCC1)Cc1nc2ccccc2s1",
    "IC50": "> 17 µM"
  },
  {
    "molecule-smiles": "c1cnc2c(c1)CN[C@@H](CN(CCCN1CCNCC1)[C@H]1CCCc3cccnc31)C2",
    "IC50": "> 17 µM"
  },
  {
    "molecule-smiles": "CN1CCN(CCCN(C[C@H]2Cc3ccccc3CN2)[C@H]2CCCc3cccnc32)CC1",
    "IC50": "6.56 µM"
  },
  {
    "molecule-smiles": "NC(=O)N1CCN(CCCN(C[C@H]2Cc3ccccc3CN2)[C@H]2CCCc3cccnc32)CC1",
    "IC50": "4.98 µM"
  },
  {
    "molecule-smiles": "c1cnc2c(c1)CCC[C@@H]2N(CCCN1CCNCC1)Cc1nc2ccccc2[nH]1",
    "IC50": "> 17 µM"
  },
  {
    "molecule-smiles": "c1cnc2c(c1)CN[C@H](CN(CCCN1CCNCC1)[C@H]1CCCc3cccnc31)C2",
    "IC50": "> 17 µM"
  }
]
